# assay_system: Sodium-dependent dopamine transporter (Rattus norvegicus)
# method_notes: Inhibition of dopamine uptake at dopamine transporter.
pIC50: −log10 of the molar value.
Outcome label depends on pIC50 relative to 6: at/above gives MET, below gives NOT MET.

-- ask Can "CN1[C@@H]2CC[C@H]1C[C@H](OC(=O)c1ccccc1)C2" be said to have pIC50 at or above 6?
-- reply NOT MET

-- ask Can "COC(=O)[C@@H]1C2CC[C@H](C[C@@H]1c1ccc(N)cc1)N2C" be said to have pIC50 at or above 6?
-- reply MET

-- ask Can "COC(=O)[C@@H]1C2CC[C@H](C[C@@H]1c1ccc(N=[N+]=[N-])cc1)N2C" be said to have pIC50 at or above 6?
-- reply MET

-- ask Can COC(=O)C1C2CC[C@H](C[C@@H]1c1ccc(Cl)cc1)N2C (stereo not given in full) be said to have pIC50 at or above 6?
-- reply MET

-- ask Can COC(=O)[C@@H]1C2CC[C@H](C[C@@H]1c1ccccc1)N2C (stereo in doubt; 70) be said to have pIC50 at or above 6?
-- reply NOT MET

* * *

# assay_system: Sodium-dependent dopamine transporter (Rattus norvegicus, UniProt P23977)
# Sequence (P23977 whole entry): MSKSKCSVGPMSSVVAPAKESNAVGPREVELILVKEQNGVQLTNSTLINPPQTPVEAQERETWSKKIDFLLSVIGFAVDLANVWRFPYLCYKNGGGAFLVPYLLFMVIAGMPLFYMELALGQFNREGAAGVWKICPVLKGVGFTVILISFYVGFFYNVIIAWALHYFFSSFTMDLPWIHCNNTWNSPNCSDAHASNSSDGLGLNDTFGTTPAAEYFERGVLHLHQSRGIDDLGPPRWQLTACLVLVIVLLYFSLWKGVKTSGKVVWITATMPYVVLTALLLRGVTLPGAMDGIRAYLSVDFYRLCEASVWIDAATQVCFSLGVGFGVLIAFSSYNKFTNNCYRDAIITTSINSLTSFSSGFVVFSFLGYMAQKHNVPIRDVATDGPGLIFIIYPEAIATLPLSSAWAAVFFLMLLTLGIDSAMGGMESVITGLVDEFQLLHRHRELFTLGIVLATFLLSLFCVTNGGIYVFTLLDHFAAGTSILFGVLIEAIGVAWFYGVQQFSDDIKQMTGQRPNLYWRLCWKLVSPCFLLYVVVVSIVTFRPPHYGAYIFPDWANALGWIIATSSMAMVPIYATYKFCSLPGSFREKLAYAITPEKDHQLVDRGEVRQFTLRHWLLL
# method_notes: Inhibition of [3H]cocaine binding to the dopamine transporter.
Could you please report measured log10(IC50) for the items listed next?
All values: log10 IC50 [nM].

-- ask Item COC(=O)C1C2CC[C@H](C[C@@H]1OC(=O)c1ccccc1)N2Cc1ccccc1 (stereo partly specified) with Sodium-dependent dopamine transporter (Rattus norvegicus, UniProt P23977) - log10(IC50)?
-- reply 1.30

-- ask Item "COC(=O)[C@@H]1C2CC[C@H](C[C@@H]1c1ccc(N)cc1)N2C" with Sodium-dependent dopamine transporter (Rattus norvegicus, UniProt P23977) - log10(IC50)?
-- reply 2.28

-- ask Item O=C(O[C@H]1C[C@H]2CCC(N2)C1C(=O)O)c1ccccc1 (stereo partly specified) with Sodium-dependent dopamine transporter (Rattus norvegicus, UniProt P23977) - log10(IC50)?
-- reply 4.89

-- ask Item COC(=O)[C@@H]1C2CC[C@H](C[C@@H]1c1ccccc1)N2C (stereo in doubt; 70) with Sodium-dependent dopamine transporter (Rattus norvegicus, UniProt P23977) - log10(IC50)?
-- reply 3.08

-- ask Item COC(=O)[C@@H]1C2CC[C@H](C[C@@H]1c1ccccc1)N2C (stereo in doubt; 68) with Sodium-dependent dopamine transporter (Rattus norvegicus, UniProt P23977) - log10(IC50)?
-- reply 3.41

-- ask Item "CN1[C@@H]2CC[C@H]1C[C@H](OC(=O)c1ccccc1)C2" with Sodium-dependent dopamine transporter (Rattus norvegicus, UniProt P23977) - log10(IC50)?
-- reply 3.52

* * *

quantity: pIC50
Please treat pIC50 as minus the base-10 logarithm of the molar concentration.

-- ask Item CN1C2CC[C@@H]1C[C@H](O)C2C(=O)O (some centres undefined) with UniProt:P23977 - pIC50?
-- reply 8.33

-- ask Item COC(=O)C1C2CC[C@H](C[C@@H]1OC(=O)c1ccccc1)N2 (stereo in doubt; 22) with UniProt:P23977 - pIC50?
-- reply 7.04

-- ask Item CN1C2CC[C@@H]1C[C@H](OC(=O)c1ccc(N)cc1)C2C(=O)O (some centres undefined) with UniProt:P23977 - pIC50?
-- reply 8.05

-- ask Item "c1ccc2sc(C3(N4CCCCC4)CCCCC3)cc2c1" with UniProt:P23977 - pIC50?
-- reply 7.70

Where do these numbers come from? They come from ChEMBL document CHEMBL1125413.
